- TGT: PfRH5 of Plasmodium falciparum strain D10 (on live parasites) (Plasmodium falciparum)
- MEASUREMENT_PROTOCOL: cell-based or functional assay
METRIC: Max growth inhibition (%) D10
Numeric answer only, unit % assumed.

Max growth inhibition (%) D10 for H1H29104P (antibody, V domains shown) VH: EVQLVESGGGLVQPGRSLRLSCAASGFRFDDYAMHWVRQAPGKGLEWVSGINWNSGGKGYADSVQGRFTISRDNAKNSLYLQMNSLRTEDTALYYCAKDRGIAARLLSRDAFDMWGQGTMVTVSS VL: DIQLTQSPSFLSASVGDRVTITCWASQDVSSYLAWYQQKPGKSPKLLIFAASTLQGGIPSRFSGSGSGTEFTLTISSLRPEDFATYYCQHLNTYPYTFGQGTKLEIKR is 55.7

The reported value for H1H29127P (antibody, V domains shown) VH: QVQLVESGGGVVQPGRSLRLSCAASGFTFSSYGMHWVRQAPGKGLEWVAAIWYDGSNKYYADSVKGRFTISRDNSKNTLYLQMNSLRAEDTAVYFCARGEHYYGSGPFDPWGQGTLVTVSS VL: DIQMTQSPSSLSASVGDRVTITCRASQSISNYLNWYQQKPGKAPKLLIFAASSLQSGVPSRFSGSGSGTDFTLTISSLQPEDFATYYCQQSYSSPLTFGGGTKVEIKR in terms of Max growth inhibition (%) D10 is 74.4

Query H1H29089P (antibody, V domains shown) VH: EVQLVQSGAEVKKPGESLKISCKGSGYSFTSYWIVWVRQMPGKGLEWMGIIYPGDSDTRYSPSFQGQVTISADKSISTAYLQWSSLKASDTAMYYCARQDITGTTGFDYWGQGTLVTVSS VL: DIQMTQSPSSLSASVGDRVTITCRASQSIRNYLNWYQQKPGKAPKLLIYAASSLQSGVPSRFSGSGSGTDFTLTISSLQPEDFATYFCQQSYSTPFTFGPGTKVDIKR yields Max growth inhibition (%) D10 of 82.3

Lab book: Max growth inhibition (%) D10 of H1H29125P (antibody, V domains shown) VH: QVQLVESGGGVVQPGRSLRLSCAASGFTFSSYGMHWVRQAPGKGLEWMAVISYDGSNKYYADSVKGRFTISRDNSKNTLFLQMNSLRPEDTAVYYCAQDGSSAIYYFYGMDVWGQGTTVTVSS VL: DIQMTQSPSSLSASIGDRVTITCRASQDINNYLAWFQQKPGKAPKSLIYAASSLQSGVPSKFSGSGSGTDFTLTISSLQPEDFATYYCLQYNSYHPTFGQGTKLEIKR noted as 75.4

Entry H1H29138P (antibody, V domains shown) VH: QVQLVESGGGVVQPGRSLRLSCAASGFTFSTYGMHWVRQAPGKGLEWVAVIWYDGTNKYYADSVKGRFTISRDNSKNTLYLQMISLRAEDTAVYYCARDPSGGDHYYYYGMDVWGQGTTVTVSS VL: DIQMTQSPSSLSASVGDRITITCQASQDISNYLNWYQQKPGKAPNLLISDASDLETGVPSRFSGSGSGTDFTFTISSLQPEDFATYYCQQYDNIPITFGQGTRLEIKR , Max growth inhibition (%) D10 reported as 57.1

Summary for this binder, H1H29100P (antibody, V domains shown) VH: QLQLQESGPGLVKPSETLSLTCTVSGGSISSSSYYWGWIRQPPGKGLEWIGIIYYSGSTYYNPSLKSRVTISVDTSKNQFSLKLSSVTAADTAVYYCARQDREALFDYWGQGTLVTVSS VL: EIVLTQSPDFQSVTPKEKVTITCRASQRIGSSLHWYQQKPDQSPKLLIKYASQSFSGVPSRFSGSGSGTDFTLTINSLEAEDAATYYCHQSSTLPTFGQGTRLEIKR : Max growth inhibition (%) D10 is 81.7

Entry H1H29109P (antibody, V domains shown) VH: EVQLVESGGGLVQPGRSLRLSCAVSGFTFDDYAMHWVRQAPGKGLEWVSGISWNSGDIDYADSVKGRFTISRDNAKNSLYLQMNSLRAEDTALYYCAKDTLSGTGTTWYYFDYWGQGTLVTVSS VL: DIQLTQSPSFLSASVGDRVTITCWASQGISSYLIWYQQKPGKAPKLLIYAASTLQSGVPSRFSGSGSGTEFTLTISSLQPEDFATYYCQQVNSYPLTFGGGTKVEIKR — recorded Max growth inhibition (%) D10 = 44.8
